Ref: paper PMC7824300

target: DNMT3B (Homo sapiens, UniProt Q9UBC3)
recordedEndpoint: IC50

# input State IC50 on DNMT3B (Homo sapiens, UniProt Q9UBC3). Entry: O=c1c(O)cc([C@H]2Oc3cc(O)cc(O)c3C[C@H]2O)cc2c([C@H]3Oc4cc(O)cc(O)c4C[C@H]3O)cc(O)c(O)c12 [Theaflavin]
# output > 100 µM

---

Recorded pIC50, one value per entry.
biological target: DNMT1 (Homo sapiens); construct: purchased Reaction Biology Corporation (contract screening service); experiment: HotSpot radioisotope methyltransferase assay, DNMT1 (Poly dI-dC substrate); format: biochemical; conditions: 10-dose, threefold serial dilution starting at 100 μM; 1 μM SAM; mean of two measurements; read-out: DNMT1 IC50
Field pIC50 (float): negative decimal logarithm of the concentration in molar.

O=c1c(O)cc([C@H]2Oc3cc(O)cc(O)c3C[C@H]2O)cc2c([C@H]3Oc4cc(O)cc(O)c4C[C@H]3O)cc(O)c(O)c12 [Theaflavin] = 4.07
Cc1cc(NCc2nnc(Cc3ccccc3)o2)ccc1C(N)=O [CSC027694519] = 4.07
COc1ccc(Cl)cc1C(=O)NCCc1ccc(S(=O)(=O)NC(=O)NC2CCCCC2)cc1 [Glyburide, reference compound] = 4.25

Note: attention shifts to another entry.
# input Determine its reported pIC50: Cc1ccc(Cl)cc1NS(=O)(=O)c1ccc(NS(=O)(=O)c2ccc3ccccc3c2)cc1 [compound 7936171]
# output 4.10

---

molecular target: DNMT1 (Homo sapiens, UniProt P26358); construct: purchased Reaction Biology Corporation (contract screening service); test: HotSpot radioisotope methyltransferase assay, DNMT1 (Poly dI-dC substrate); type: biochemical; settings: 100 μM compound; rounded values; read-out: inhibition of DNMT1
Sequence (P26358 whole entry): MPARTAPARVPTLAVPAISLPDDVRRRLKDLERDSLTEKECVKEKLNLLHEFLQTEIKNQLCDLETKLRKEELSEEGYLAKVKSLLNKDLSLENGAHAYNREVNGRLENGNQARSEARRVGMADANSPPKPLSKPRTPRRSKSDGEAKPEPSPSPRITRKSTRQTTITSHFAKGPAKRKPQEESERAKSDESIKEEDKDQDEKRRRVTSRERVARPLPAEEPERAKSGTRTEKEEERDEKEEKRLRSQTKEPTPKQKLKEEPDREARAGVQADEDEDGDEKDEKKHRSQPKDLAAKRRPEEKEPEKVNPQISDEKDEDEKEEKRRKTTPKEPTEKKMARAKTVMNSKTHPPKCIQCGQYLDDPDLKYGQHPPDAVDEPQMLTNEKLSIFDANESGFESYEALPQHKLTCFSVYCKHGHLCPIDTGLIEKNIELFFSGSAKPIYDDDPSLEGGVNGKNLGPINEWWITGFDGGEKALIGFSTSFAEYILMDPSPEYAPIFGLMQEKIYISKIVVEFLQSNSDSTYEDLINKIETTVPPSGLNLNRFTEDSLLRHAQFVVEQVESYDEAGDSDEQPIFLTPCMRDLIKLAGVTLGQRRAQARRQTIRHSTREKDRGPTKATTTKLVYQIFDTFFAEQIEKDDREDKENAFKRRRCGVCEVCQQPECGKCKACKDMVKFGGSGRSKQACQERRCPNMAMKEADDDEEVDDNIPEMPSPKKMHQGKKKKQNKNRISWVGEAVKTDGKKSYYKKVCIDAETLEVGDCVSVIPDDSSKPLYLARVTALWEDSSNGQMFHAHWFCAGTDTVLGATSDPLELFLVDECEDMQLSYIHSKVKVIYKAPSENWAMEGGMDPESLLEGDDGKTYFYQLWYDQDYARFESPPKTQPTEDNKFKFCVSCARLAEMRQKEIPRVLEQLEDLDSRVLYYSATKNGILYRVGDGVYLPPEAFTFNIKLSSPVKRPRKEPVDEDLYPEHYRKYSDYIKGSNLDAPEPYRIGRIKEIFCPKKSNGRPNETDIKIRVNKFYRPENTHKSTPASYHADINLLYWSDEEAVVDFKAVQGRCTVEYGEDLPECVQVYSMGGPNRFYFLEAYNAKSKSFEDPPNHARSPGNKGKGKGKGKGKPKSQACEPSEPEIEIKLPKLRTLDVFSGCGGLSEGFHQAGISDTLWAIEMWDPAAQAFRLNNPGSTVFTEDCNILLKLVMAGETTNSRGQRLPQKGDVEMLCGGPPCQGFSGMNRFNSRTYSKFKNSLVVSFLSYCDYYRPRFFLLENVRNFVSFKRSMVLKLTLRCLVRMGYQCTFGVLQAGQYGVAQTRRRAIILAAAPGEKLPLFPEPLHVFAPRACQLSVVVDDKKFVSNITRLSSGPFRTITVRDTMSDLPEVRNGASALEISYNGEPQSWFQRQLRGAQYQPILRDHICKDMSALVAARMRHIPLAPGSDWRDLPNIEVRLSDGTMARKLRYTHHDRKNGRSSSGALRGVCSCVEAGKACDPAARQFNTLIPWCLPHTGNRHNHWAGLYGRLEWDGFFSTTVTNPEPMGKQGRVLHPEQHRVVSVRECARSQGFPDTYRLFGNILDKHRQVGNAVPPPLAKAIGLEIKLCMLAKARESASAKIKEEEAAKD
recordedEndpoint: inhibition at 100 µM (%)
Output spec: scalar in %, unitless text.

Worked examples, 5 molecules total:
Cc1ccnc2nc(C(=O)Nc3nc(-c4ccc5c(c4)OCO5)cs3)nn12 [CSC026286840] = 27
Cc1cc(NC(=O)CN2CCN(c3cc(C(N)=O)c4ccccc4n3)CC2)no1 [CSC027480404] = 29
Cc1cc(NCc2nnc(Cc3ccccc3)o2)ccc1C(N)=O [CSC027694519] = 65
COc1ccc(Cl)cc1C(=O)NCCc1ccc(S(=O)(=O)NC(=O)NC2CCCCC2)cc1 [Glyburide, reference compound] = 60
O=c1c(O)cc([C@H]2Oc3cc(O)cc(O)c3C[C@H]2O)cc2c([C@H]3Oc4cc(O)cc(O)c4C[C@H]3O)cc(O)c(O)c12 [Theaflavin] = 65

# input Determine its reported inhibition at 100 µM: Cc1[nH]c2ccccc2c1CCNCc1ccc(/C=C/C(=O)NO)cc1 [Panobinostat, reference compound]
# output 63

# input Determine its reported inhibition at 100 µM: Cc1ccc(Cl)cc1NS(=O)(=O)c1ccc(NS(=O)(=O)c2ccc3ccccc3c2)cc1 [compound 7936171]
# output 62

---

Recorded relative enzymatic activity of DNMT1, one value per entry.
biological target: DNMT1 (Homo sapiens, UniProt P26358); construct: purchased Reaction Biology Corporation (contract screening service); experiment: HotSpot radioisotope methyltransferase assay, DNMT1 (Poly dI-dC substrate); type: biochemical; settings: 100 μM compound; mean of two measurements ± SD; 1 μM SAM

Cc1ccc(Cl)cc1NS(=O)(=O)c1ccc(NS(=O)(=O)c2ccc3ccccc3c2)cc1 = 37.74 (±2.15) %
Cc1ccnc2nc(C(=O)Nc3nc(-c4ccc5c(c4)OCO5)cs3)nn12 = 73.45 (±3.06) %
O=C(O)c1ccc(NS(=O)(=O)c2ccc(N3CCCC3=O)cc2)cc1 = 105.71 (±1.27) %

Note: attention shifts to another entry.
# input Determine its reported relative enzymatic activity of DNMT1: `Cc1cc(NC(=O)CN2CCN(c3cc(C(N)=O)c4ccccc4n3)CC2)no1`
# output 70.63 (±0.19) %
